# pIC50 values compiled below
# target.or.test.system: NLRP3 inflammasome (Homo sapiens (Human))
# Sequence (Q96P20 whole entry): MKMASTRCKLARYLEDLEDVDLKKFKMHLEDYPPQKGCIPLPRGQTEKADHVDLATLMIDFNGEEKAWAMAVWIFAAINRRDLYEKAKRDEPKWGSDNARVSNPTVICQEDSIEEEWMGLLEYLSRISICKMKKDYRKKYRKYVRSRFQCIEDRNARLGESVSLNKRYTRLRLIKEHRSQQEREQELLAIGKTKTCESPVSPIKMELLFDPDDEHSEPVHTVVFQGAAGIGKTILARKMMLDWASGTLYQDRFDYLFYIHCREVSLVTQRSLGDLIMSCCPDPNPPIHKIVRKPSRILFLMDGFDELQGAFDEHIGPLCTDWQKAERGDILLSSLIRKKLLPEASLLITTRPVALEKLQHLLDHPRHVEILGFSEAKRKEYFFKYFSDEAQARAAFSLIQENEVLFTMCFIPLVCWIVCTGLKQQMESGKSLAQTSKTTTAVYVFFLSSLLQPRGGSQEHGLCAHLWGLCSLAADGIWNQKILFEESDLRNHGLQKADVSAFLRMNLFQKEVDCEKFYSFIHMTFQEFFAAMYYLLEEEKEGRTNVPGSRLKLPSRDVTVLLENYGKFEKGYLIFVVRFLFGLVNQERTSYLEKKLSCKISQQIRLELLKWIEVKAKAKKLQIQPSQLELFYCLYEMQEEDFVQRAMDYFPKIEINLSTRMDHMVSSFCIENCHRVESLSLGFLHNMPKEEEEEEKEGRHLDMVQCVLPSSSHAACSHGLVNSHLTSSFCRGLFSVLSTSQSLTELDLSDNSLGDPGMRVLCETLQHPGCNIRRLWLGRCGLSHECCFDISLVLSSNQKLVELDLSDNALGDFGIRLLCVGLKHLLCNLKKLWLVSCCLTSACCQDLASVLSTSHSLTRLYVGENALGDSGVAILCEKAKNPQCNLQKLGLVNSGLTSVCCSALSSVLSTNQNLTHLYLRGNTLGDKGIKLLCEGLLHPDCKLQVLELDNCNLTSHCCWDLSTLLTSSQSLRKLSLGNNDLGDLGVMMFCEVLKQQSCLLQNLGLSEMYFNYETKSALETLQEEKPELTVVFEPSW
# run.description: Evaluation of NLRP3 inflammasome inhibitory activity (inhibition of IL-1β production in LPS/Nigericin-stimulated THP1-Null cells)
# assay.context: IL-1β production in THP1-Null cells, PMA, LPS 1 μg/mL, Nigericin 7.5 μmol/L, AlphaLISA
pIC50: −log10 of the molar value.
measured.attribute: pIC50

> print(dat)
                                   molecule  measurement
1  O=c1[nH]c(N2CCOCC2)nc2nn(-c3ccc(Br)cc3C3CC3)cc12         7.96
2  Cc1cc(Br)cc(C)c1-n1cc2c(=O)[nH]c(N3CCN(C)CC3)nc2n1         7.82
3  O=c1[nH]c(N2C[C@H]3C[C@@H]2CO3)nc2nn(-c3ccc(Br)cc3C(O)C3CC3)cc12 (stereo partly shown)         6.96
4  Cc1cc(Br)cc(C)c1-n1cc2c(=O)[nH]c(N3CCC(C#N)C3)nc2n1 (racemic)         8.19
